Attribution: paper PMC10707033

# tested_target: muscle-type nicotinic acetylcholine receptor from the electric organ of Torpedo californica (Torpedo californica (endogenous in electric organ)) (UniProt P02710)
# experiment_notes: radioligand binding
value_kind: pIC50
# log scale: pIC50 equals minus log10 of the concentration in mol/L

Quick check: pIC50 of synthetic SLURP-1 (natural protein) LKCYTCKEPMTSASCRTITRCKPEDTACMTTLVTVEAEYPFNQSPVVTRSCSSSCVATDPDSIGAAHLIFCCFRDLCNSEL ?
5.39

Please give the result for recombinant SLURP-1 with one additional N-terminal Met residue (natural protein) MLKCYTCKEPMTSASCRTITRCKPEDTACMTTLVTVEAEYPFNQSPVVTRSCSSSCVATDPDSIGAAHLIFCCFRDLCNSEL too.
4.97
